# Experimental System: T1, recombinant human IL-17A (human, UniProt Q16552 24-155)
# T1 construct: Bought recombinant protein (Peprotech AF-200-17); also called Peprotech AF-200-17
# T1 sequence (Q16552 24-155): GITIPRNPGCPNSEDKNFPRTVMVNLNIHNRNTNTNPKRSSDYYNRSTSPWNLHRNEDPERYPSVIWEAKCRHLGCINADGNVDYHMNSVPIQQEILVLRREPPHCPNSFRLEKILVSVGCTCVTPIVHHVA
# Experiment Notes: SPR (BIAcore T200), IL-17A coupled to CM5 chip, single-cycle kinetics;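 also: VH domain analytes, kinetic constants obtained by fitting blank-corrected sensorgrams to a 1:1 binding model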
So I've got a bunch of binders here, and I need their kon values.
Numbers only, in M⁻¹ s⁻¹.

Below: 4 binders and their reported kon.
{"Binder": "Clone 1.9 (VHH, Human single VH domain) VHH: QVQLVESGGGLVQPGGSLRLSCAASGFTFSSYGMYWVRQAPGKGLEWVAEIKQDGSEKYYVDSVKGRFTISRDNAKNSLYLQMNSLRAEDTAVYYCAKGEILPLYFDYWGQGTLVTVSS", "kon [M⁻¹ s⁻¹]": 877000}
{"Binder": "Clone 1.14 (VHH, Human single VH domain) VHH: EVQLVESGGGLVQRGGSLRLSCAASGFTFSSYRMYWVRQAPGKGLEWVASIEQDGSEEYYVDSVKGRFTISRDNAKKSLFLQMNSLRAEDTAVYYCAKGEILPLYFDYWGQGTLVTVSS", "kon [M⁻¹ s⁻¹]": 753000}
{"Binder": "VH 1.10.1 (clone 1.10 expressed from phagemid vector: with linker residues and His tag) (VHH, Human single VH domain) VHH: EVQLVESGGGLVQPGGSLRLSCAASGFTFSSYRMYWVRQAPGKGLEWVASIEQDGSEEYYVDSVKGRFTISRDNAKKSLFLQMNSLRAEDTAVYYCAKGEILPLYFDYWGQGTLVTVSS", "kon [M⁻¹ s⁻¹]": 664000}
{"Binder": "Clone 1.22 (VHH, Human single VH domain) VHH: EVQLVESGGGLVRPGGSLRLSCAASGFTFSSYGMYWVRQAPGKGLEWVAKIEQDGSEEYYVDSVKGRFTISRDNAKKSLYLQMNSLRAEDTAVYYCAKGEILPLYFDYWGQGTLVTVSS", "kon [M⁻¹ s⁻¹]": 565000}

For the next question, use this binder.
Dear colleague, I am looking for the recorded kon of the following binder: VH 1.17.1 (clone 1.17 expressed from phagemid vector: with linker residues and His tag) (VHH, Human single VH domain) VHH: EVQLVESGGGLVQPGGSLRLSCAASGFTFSSYSMYWVRQAPGKGLEWVAEIKPTGSVQYYVSDVKGRFTISRDNAKNSLYLQMNSLRAEDTAVYYCAKGEILPLYFDYWGQGTLVTVSS
923000
